Please respond with reported MIC for every item in the list.
System: clinical methicillin resistant Staphylococcus aureus (MRSA) isolates
Assay: MIC against clinical MRSA isolates, LB microdilution assay
Settings: Staphylococcus aureus, MRSA, MRSA AG044, strain 07-12R Gm^R

MIC value, target or system clinical methicillin resistant Staphylococcus aureus (MRSA) isolates, for NC[C@@H]1O[C@H](O[C@H]2[C@@H](O)[C@H](O[C@@H]3[C@@H](O)[C@H](N)C[C@H](N)[C@H]3O[C@H]3O[C@H](CO)[C@@H](O)[C@H](O)[C@H]3N)O[C@@H]2CO)[C@H](N)[C@@H](O)[C@@H]1O : 2 to 4 mg/L

MIC value, target or system clinical methicillin resistant Staphylococcus aureus (MRSA) isolates, for NC[C@H]1O[C@H](O[C@H]2[C@H](O)[C@@H](O[C@H]3O[C@H](CO)[C@@H](O)[C@H](N)[C@H]3O)[C@H](N)C[C@@H]2N)[C@H](O)[C@@H](O)[C@@H]1O : 64 mg/L

MIC value, target or system clinical methicillin resistant Staphylococcus aureus (MRSA) isolates, for NC[C@H]1O[C@H](O[C@H]2[C@H](O)[C@@H](O[C@H]3O[C@H](CO)[C@@H](O)[C@H](N)[C@H]3O)[C@H](N)C[C@@H]2N)[C@H](N)C[C@@H]1O : 8 mg/L

MIC value, target or system clinical methicillin resistant Staphylococcus aureus (MRSA) isolates, for NCC[C@H](O)C(=O)N[C@@H]1C[C@H](N)[C@@H](O[C@H]2O[C@H](CN)[C@@H](O)[C@H](O)[C@H]2O)[C@H](O)[C@H]1O[C@H]1O[C@H](CO)[C@@H](O)[C@H](N)[C@H]1O : 4 mg/L

MIC value, target or system clinical methicillin resistant Staphylococcus aureus (MRSA) isolates, for CNC1C(OC2OC(CO)C(N)C(O)C2O)OC2CC(N)C(OC3C(N)CC(N)C(O)C3O)OC2C1O (stereo not drawn) : 16 mg/L

MIC value, target or system clinical methicillin resistant Staphylococcus aureus (MRSA) isolates, for CN[C@@H]1[C@@H](O)[C@@H](O[C@@H]2[C@@H](O)[C@H](O[C@H]3OC(CN)=CC[C@H]3N)[C@@H](N)C[C@H]2N)OC[C@]1(C)O : 8 mg/L

====

Tested on: clinical methicillin resistant Staphylococcus aureus (MRSA) isolates
Assay: MIC against clinical MRSA isolates, LB microdilution assay
Settings: Staphylococcus aureus, MRSA, MRSA AG051, strain 36-06R Gm^R
readout: MIC (µg/mL)
Lab book: enter the figure in µg/mL, no units written.

MIC value, target or system clinical methicillin resistant Staphylococcus aureus (MRSA) isolates, for CN[C@@H]1[C@@H](O)[C@@H](O[C@@H]2[C@@H](O)[C@H](O[C@H]3OC(CN)=CC[C@H]3N)[C@@H](N)C[C@H]2N)OC[C@]1(C)O [Sisomicin] : 64

MIC value, target or system clinical methicillin resistant Staphylococcus aureus (MRSA) isolates, for CNC1C(OC2OC(CO)C(N)C(O)C2O)OC2CC(N)C(OC3C(N)CC(N)C(O)C3O)OC2C1O (stereo not shown) [Apramycin] : 8

====

Tested on: M. bolletii
Assay: MIC against non-tuberculous rapidly-growing mycobacteria, microdilution
Format: cell-based
Conditions: Mycobacteroides abscessus, strain 179639/10 M. bolletii; read-out: minimal inhibitory concentration (MIC)
Please respond with reported MIC for every item in the list.
Lab book: enter the figure in µg/mL, no units written.

Record NCC[C@H](O)C(=O)N[C@@H]1C[C@H](N)[C@@H](O[C@H]2O[C@H](CN)[C@@H](O)[C@H](O)[C@H]2O)[C@H](O)[C@H]1O[C@H]1O[C@H](CO)[C@@H](O)[C@H](N)[C@H]1O [Amikacin] . Reported MIC: 8

Record NC[C@H]1O[C@H](O[C@H]2[C@H](O)[C@@H](O[C@H]3O[C@H](CO)[C@@H](O)[C@H](N)[C@H]3O)[C@H](N)C[C@@H]2N)[C@H](O)[C@@H](O)[C@@H]1O [Kanamicin A] . Reported MIC: 64

Record NC[C@H]1O[C@H](O[C@H]2[C@H](O)[C@@H](O[C@H]3O[C@H](CO)[C@@H](O)[C@H](N)[C@H]3O)[C@H](N)C[C@@H]2N)[C@H](N)C[C@@H]1O [Tobramycin] . Reported MIC: 32

Record CNC1C(OC2OC(CO)C(N)C(O)C2O)OC2CC(N)C(OC3C(N)CC(N)C(O)C3O)OC2C1O (stereo not shown) [Apramycin] . Reported MIC: 4
